Origin of measurements: patent US20230174523A1

Below: a set of entries, each annotated with reported Emax.
assayTarget: UniProt:Q12931
Sequence (Q12931 60-704): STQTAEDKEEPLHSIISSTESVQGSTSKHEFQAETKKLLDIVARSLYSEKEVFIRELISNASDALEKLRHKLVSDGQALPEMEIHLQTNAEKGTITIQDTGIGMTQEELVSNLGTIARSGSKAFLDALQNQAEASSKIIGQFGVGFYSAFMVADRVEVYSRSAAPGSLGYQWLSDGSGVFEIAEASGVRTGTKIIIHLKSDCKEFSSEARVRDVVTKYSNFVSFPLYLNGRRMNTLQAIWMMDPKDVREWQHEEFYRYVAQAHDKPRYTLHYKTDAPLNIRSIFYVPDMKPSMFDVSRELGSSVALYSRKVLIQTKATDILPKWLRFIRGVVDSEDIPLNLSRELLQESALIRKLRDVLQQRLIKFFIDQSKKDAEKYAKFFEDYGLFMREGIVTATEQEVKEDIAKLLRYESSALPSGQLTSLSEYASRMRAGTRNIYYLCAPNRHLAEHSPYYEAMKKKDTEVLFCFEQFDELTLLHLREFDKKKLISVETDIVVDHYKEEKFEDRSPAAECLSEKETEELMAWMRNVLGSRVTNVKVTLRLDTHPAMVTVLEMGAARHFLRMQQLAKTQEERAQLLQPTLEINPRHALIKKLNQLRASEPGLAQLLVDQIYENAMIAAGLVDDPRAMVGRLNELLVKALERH
assayOverview: ADP Glo assay of TRAP1 ATPase activity
Format: biochemical
conditionDetails: read-out: ADP GLO DRC: Mean Emax
assayMetric: Emax

* Cc1oc(C)c(C(=O)Nc2ccc(F)c(S(=O)(=O)Nc3ccc(Cl)cc3)c2)c1C | 123 to 159%
* CCS(=O)(=O)c1ccc(OC)c(C(=O)Nc2ccc(OC)c(S(=O)(=O)Nc3c(C)cccc3C)c2)c1 | 160 to 199%
* COc1ccc(NC(=O)c2ccc(F)c(-c3c(F)cccc3F)n2)cc1S(=O)(=O)Nc1c(C)cccc1C | 160 to 199%
* COc1ccc(NC(=O)c2ccc(-n3cccn3)cc2Cl)cc1S(=O)(=O)Nc1c(C)cccc1C | 160 to 199%
* COc1ccc(NC(=O)c2ncc(-c3cc(F)c(F)c(F)c3)o2)cc1S(=O)(=O)Nc1c(C)csc1C | 123 to 159%

* * *

assayTarget: TRAP1 enzyme (Homo sapiens)
Sequence (Q12931 60-704): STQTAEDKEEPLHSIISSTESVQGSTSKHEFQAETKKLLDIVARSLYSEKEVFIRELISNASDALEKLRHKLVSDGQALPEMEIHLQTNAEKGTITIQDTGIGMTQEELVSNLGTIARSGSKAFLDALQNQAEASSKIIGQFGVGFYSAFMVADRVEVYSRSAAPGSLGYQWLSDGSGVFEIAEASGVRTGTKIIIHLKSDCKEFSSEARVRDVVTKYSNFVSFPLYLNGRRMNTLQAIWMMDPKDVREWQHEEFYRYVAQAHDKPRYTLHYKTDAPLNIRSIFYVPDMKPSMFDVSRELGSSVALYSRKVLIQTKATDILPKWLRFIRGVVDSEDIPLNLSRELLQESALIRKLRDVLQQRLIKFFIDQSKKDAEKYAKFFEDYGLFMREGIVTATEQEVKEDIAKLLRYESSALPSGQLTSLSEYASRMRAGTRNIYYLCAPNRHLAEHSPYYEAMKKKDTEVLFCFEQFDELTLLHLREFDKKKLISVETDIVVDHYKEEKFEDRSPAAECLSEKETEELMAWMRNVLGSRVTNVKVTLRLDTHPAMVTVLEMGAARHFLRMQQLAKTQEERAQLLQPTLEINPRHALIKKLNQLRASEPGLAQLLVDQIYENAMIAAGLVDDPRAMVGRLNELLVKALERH
assayOverview: ADP Glo assay of TRAP1 ATPase activity
Type: biochemical
conditionDetails: TRAP1 ATPase activation, 150 nM Trap1, 20 μM ATP, geometric mean; read-out: ADP GLO DRC: GeoMean EC50
pEC50: −log10 of the molar value.
Below: a set of entries, each annotated with reported pEC50.
assayMetric: pEC50

• Cc1nn(C)c2sc(C(=O)Nc3ccc(F)c(S(=O)(=O)Nc4ccc(Cl)cc4)c3)cc12 = 4.70 to 5.00
• COc1ccc(NC(=O)c2c(C)noc2-c2ccccc2)cc1S(=O)(=O)Nc1c(C)cccc1C = 4.70 to 5.00
• COc1ccc(NC(=O)c2csc(-c3cc(F)c(F)c(F)c3)n2)cc1S(=O)(=O)Nc1c(C)csc1C = > 5.00
• COc1ccc(NC(=O)c2ncn(-c3cccc(F)c3)n2)cc1S(=O)(=O)Nc1c(C)cccc1C = 4.00 to 4.70
• Cn1cnc2cc(C(=O)Nc3ccc(F)c(S(=O)(=O)Nc4ccc(Cl)cc4)c3)ccc2c1=O = 4.00 to 4.70
• Cc1nc2cccc(C(=O)Nc3ccc(F)c(S(=O)(=O)Nc4ccc(Cl)cc4)c3)c2s1 = 4.00 to 4.70

* * *

assayTarget: TRAP1 enzyme (Homo sapiens)
Sequence (Q12931 60-704): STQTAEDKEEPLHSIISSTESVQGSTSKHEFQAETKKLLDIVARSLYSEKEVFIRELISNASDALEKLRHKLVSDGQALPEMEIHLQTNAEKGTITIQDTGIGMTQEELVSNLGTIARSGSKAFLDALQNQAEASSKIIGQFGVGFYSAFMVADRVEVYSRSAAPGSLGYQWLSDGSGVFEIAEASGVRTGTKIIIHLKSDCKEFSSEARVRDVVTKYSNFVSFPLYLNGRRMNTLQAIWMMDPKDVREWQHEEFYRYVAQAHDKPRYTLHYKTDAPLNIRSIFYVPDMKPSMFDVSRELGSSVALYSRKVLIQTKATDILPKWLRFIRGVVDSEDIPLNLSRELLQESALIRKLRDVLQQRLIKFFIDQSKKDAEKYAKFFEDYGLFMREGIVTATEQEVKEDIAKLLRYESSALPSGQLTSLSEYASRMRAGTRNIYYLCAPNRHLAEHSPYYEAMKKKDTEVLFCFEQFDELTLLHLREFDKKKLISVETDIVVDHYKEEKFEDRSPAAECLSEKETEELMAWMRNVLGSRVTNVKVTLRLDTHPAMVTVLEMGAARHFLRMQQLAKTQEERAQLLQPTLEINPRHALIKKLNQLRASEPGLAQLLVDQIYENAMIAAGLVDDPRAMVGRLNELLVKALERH
assayOverview: ADP Glo assay of TRAP1 ATPase activity
Type: biochemical
conditionDetails: read-out: ADP GLO DRC: Mean Emax
Below: a set of entries, each annotated with reported Emax.
assayMetric: Emax

* COc1ccc(NC(=O)c2cccc(Cc3ccc(F)cc3)c2)cc1S(=O)(=O)Nc1c(C)cccc1C | 123 to 159%
* O=C(Nc1ccc(F)c(S(=O)(=O)Nc2ccc(Cl)cc2)c1)c1cnc(Cl)cc1Cl | 123 to 159%
* COc1ccc(NC(=O)c2ncn(-c3ccccc3)n2)cc1S(=O)(=O)Nc1c(C)cccc1C | 200 to 300%
* CCc1ccnc(C(=O)Nc2ccc(OC)c(S(=O)(=O)Nc3c(C)cccc3C)c2)c1 | 200 to 300%
* COc1ccc(NC(=O)c2cccc(C#N)c2Cl)cc1S(=O)(=O)Nc1c(C)cccc1C | 200 to 300%
* CCc1noc(CC)c1C(=O)Nc1ccc(F)c(S(=O)(=O)Nc2ccc(Cl)cc2)c1 | 160 to 199%
* O=C(Nc1ccc(F)c(S(=O)(=O)Nc2ccc(Cl)cc2)c1)c1cnccc1C(F)(F)F | 123 to 159%
* O=C(Nc1ccc(F)c(S(=O)(=O)Nc2ccc(Cl)cc2)c1)c1cccc(-n2cncn2)c1 | 123 to 159%
* CCS(=O)(=O)c1ccc(OC)c(C(=O)Nc2ccc(F)c(S(=O)(=O)Nc3ccc(Cl)cc3)c2)c1 | 160 to 199%
* COc1ccc(NC(=O)c2cc(C)cc(F)c2F)cc1S(=O)(=O)Nc1c(C)cccc1C | 123 to 159%

* * *

assayTarget: UniProtKB Q12931
assayOverview: ADP Glo assay of TRAP1 ATPase activity
Type: biochemical
conditionDetails: read-out: ADP GLO DRC: Mean Emax
assayMetric: Emax

* COc1ccc(NC(=O)c2ccc3c(=O)n(C)cnc3c2)cc1S(=O)(=O)Nc1c(C)cccc1C [Compound 1124] | 200 to 300%
* COc1ccc(NC(=O)c2ccnc(SC)n2)cc1S(=O)(=O)Nc1c(C)cccc1C [Compound 1039] | 160 to 199%
* COc1ccc(NC(=O)c2cc3ccccc3n2C)cc1S(=O)(=O)Nc1c(C)cccc1C [Compound 1170] | 123 to 159%
* COc1ccc(NC(=O)c2cccc(-c3ccccn3)c2)cc1S(=O)(=O)Nc1c(C)cccc1C [Compound 1271] | 160 to 199%
* COc1ccc(NC(=O)c2cc3c(C)nn(C)c3s2)cc1S(=O)(=O)Nc1c(C)cccc1C [Compound 1252] | 200 to 300%
* COc1cnc(Cl)c(C(=O)Nc2ccc(OC)c(S(=O)(=O)Nc3c(C)cccc3C)c2)c1 [Compound 1072] | 160 to 199%
* COc1ccc(NC(=O)c2cccc(-c3csc(C)n3)c2)cc1S(=O)(=O)Nc1c(C)cccc1C [Compound 1290] | 160 to 199%
